Values compiled from PubChem BioAssay.

The entries below come with measured composite z-score values attached.
assay: small molecules captured by biotinylated probe aFSTL3 – biochemical, small-molecule microarray, fluorescence 635/667, stem cell growth factor project, primary screen (AID 1064); conditions: higher = more signal;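 also: measures binding of the biotinylated anti-FSTL3 antibody to printed compounds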
Number, no unit, nothing else.

// worked examples, composite z-score included
INSERT INTO assay_data (molecule_smiles, quantitative_readout) VALUES
  ('COC(=O)[C@@]1(Cc2ccc(F)cc2)[C@H]2c3cc(C(=O)N4CCCC4)n(CCc4ccc(OC)c(Br)c4)c3C[C@H]2CN1C(=O)c1ccccc1', 0.502),
  ('O=C1O[C@H](c2ccccc2)[C@H](c2ccccc2)N2[C@H]1[C@@H](C(=O)Nc1nc3ccccc3s1)[C@]1(C(=O)Nc3ccc(C#CC4=CCCCC4)cc31)[C@H]2c1ccc(OCCO)cc1', -0.576);

Continue with the next compound.
**Q:** Consider the compound O=C(CS)NCCCCCNC(=O)[C@H]1C[C@H]2C(=O)N[C@@H](Cc3ccccc3)C(=O)N2[C@H]1c1cccc(OCCO)c1 and give its measured composite z-score.
**A:** 0.0238
